Test system: M19-MEL
EXPERIMENTAL PROTOCOL: NCI tumour cell line growth inhibition, 48 h
Active and inactive are the calls of the source. No stated cut-off is given here; in the data, active = GI50 up to about 1.1 µM and inactive = higher.
Just give me one of these, please: active, inactive

- COMPOUND: "CCCCCCCCCCCC(=O)OCC1OC(n2cc(F)c(=O)[nH]c2=O)C(NC(=O)OCc2ccccc2)C(O)C1O (centres undefined)"
  ASSIGNED CLASS: "inactive"
- COMPOUND: "Nc1c(S(=O)(=O)O)cc2cc(S(=O)(=O)O)ccc2c1/N=N/c1ccc(-c2ccc(/N=N/c3c(N)c(S(=O)(=O)O)cc4cc(S(=O)(=O)O)ccc34)c(S(=O)(=O)O)c2)cc1"
  ASSIGNED CLASS: "inactive"
- COMPOUND: "C#CCC(O)c1ccccc1C(O)CC#C (centres undefined)"
  ASSIGNED CLASS: "inactive"
- COMPOUND: "N#CC(NNC(=O)Cc1ccccc1)c1ccc([N+](=O)[O-])cc1 (centres undefined)"
  ASSIGNED CLASS: "inactive"
- COMPOUND: "O=C(/C=C/c1ccccc1)CC1OC(=O)c2ccccc21 (centres undefined)"
  ASSIGNED CLASS: "inactive"
- COMPOUND: "CCN1CCN(c2ccc(Nc3ccnc4ccc5nn(C)nc5c34)cc2)CC1"
  ASSIGNED CLASS: "inactive"
- COMPOUND: "C=C1Cc2cc(OC)c(OC)c(OC)c2-c2ccc(SC)c(=O)cc21"
  ASSIGNED CLASS: "active"
- COMPOUND: "NC(=S)N/N=C(\\C(=O)Nc1ccc(Cl)c(Cl)c1)C1=NN(c2ccccc2)C(c2cccc([N+](=O)[O-])c2)CC1=O (centres undefined)"
  ASSIGNED CLASS: "inactive"

Now look at this one.
Outcome logged for `Cc1ccc(S(=O)(=O)N[C@H](C(=O)O)c2ccccc2)cc1` in this assay:
inactive

----------
Tested on: SW-620
EXPERIMENTAL PROTOCOL: NCI tumour cell line growth inhibition, 48 h
Calls of active or inactive are those of the source. No stated cut-off is given here; in the data, active = GI50 up to about 1.1 µM and inactive = higher.
GI50 values, listed per item

- MOLECULE: "Cc1ccc(C)n1-n1c(-c2ccccc2)n[nH]c1=O"
  MEASURED METRIC: "GI50"
  VALUE OBSERVED: "> 100 µM (inactive)"
- MOLECULE: "Oc1cc(-c2cccc(C(F)(F)F)c2)nc2cc3c(cc12)OCO3"
  MEASURED METRIC: "GI50"
  VALUE OBSERVED: "2.21 µM (inactive)"
- MOLECULE: "Cc1ccc(Nc2cn(COCc3ccccc3)c(=O)[nH]c2=O)cc1"
  MEASURED METRIC: "GI50"
  VALUE OBSERVED: "> 100 µM (inactive)"

Short answer for `Cc1ccc(/N=C2/SC(c3ccc(C)cc3)(c3ccc(C)cc3)c3ccccc32)cc1` : GI50 was > 100 µM (inactive)

# GI50 (molecule: CC1(c2sccc2Cl)CC(c2sccc2Cl)=C(C#N)C(=C(C#N)C#N)N1 (stereo unspecified) ) is 18.8 µM (inactive)

Field GI50 (entry `O=c1oc2c(ccc3ccccc32)cc1C1=CSC2=NCCN12` ) reads 29.7 µM (inactive)

Lab book: GI50 of `O=C1CC[C@H]2CNC(=O)C[C@H]2C1` noted as > 100 µM (inactive)

Please fill in: GI50 reported for `NC(=S)NS(=O)(=O)c1ccc(Cl)cc1` = > 100 µM (inactive)

In plain terms, `COC(=O)C1(C(=O)OC)CC(=O)c2c(OC(=O)c3cccc(OC)c3C#N)ccc(OC(=O)c3cccc(OC)c3C#N)c2C1` has a documented GI50 of > 100 µM (inactive)

----------
compounds and their reported GI50
Test system: SNB-19
EXPERIMENTAL PROTOCOL: NCI tumour cell line growth inhibition, 48 h
The source made the active and inactive calls. No stated cut-off is given here; in the data, active = GI50 up to about 1.1 µM and inactive = higher.

- COMPOUND: "Nc1nc2cc(COc3ccc(C(=O)O)cc3)ccc2nc1-c1ccccc1"
  GI50: "> 10 µM (inactive)"

Recorded GI50 (compound CCOC(=O)C1=C(C)N(NC(N)=O)C2(O)CCCC(=O)C12C (configuration not stated) ): > 100 µM (inactive)

For record O=C(/C=C/c1ccccc1)CC1OC(=O)c2ccccc21 (configuration not stated) the listed GI50 is 42.1 µM (inactive)

Lab book: GI50 of CC1=C(C(=O)O)N2C(=O)[C@@H](NC(=O)C(c3ccccc3)N3CSC(=S)N(C(C)C)C3)C2SC1 (some centres not stated) noted as > 100 µM (inactive)

Summary for this compound, `O=C(N/N=C/c1cc(Br)ccc1O)N/N=C/c1cc(Br)ccc1O` : GI50 is 5.31 µM (inactive)

Summary for this compound, Nc1nc(Cl)cc(NCC2(CO)CC(OCc3ccccc3)C2)n1 (configuration not stated) : GI50 is 41.9 µM (inactive)

Sure, the documented GI50 for `N#Cc1c(=O)c2ccccc2n2ccccc12` is 83.6 µM (inactive)

Memo: NCCNCC(O)CO (configuration not stated) , reported GI50: > 100 µM (inactive)

GET /value?item= Nc1nc(Cl)c2nnn(CC3CCC(CO)C3)c2n1 (configuration not stated) &field=GI50 returns > 100 µM (inactive)

Recorded GI50 (compound CSc1nc2c(c(N(C)C)n1)C(O)n1c(nc3ccccc31)S2 (configuration not stated) ): 25.4 µM (inactive)

// `O=C(CCl)Nc1cc(Cl)c(Cl)cc1Cl` : GI50 value = 2.27 µM (inactive)

Documented GI50 of `CCOC(=O)P(=O)(O)c1ccc(N(C)Cc2ccccc2)cc1` : > 100 µM (inactive)

----------
Test system: A498
EXPERIMENTAL PROTOCOL: NCI tumour cell line growth inhibition, 48 h
The source made the active and inactive calls. No stated cut-off is given here; in the data, active = GI50 up to about 1.1 µM and inactive = higher.
Parameter: GI50. Scope: all listed entries.

- COMPOUND: "COc1cc(CSc2ccc(O)cc2)cc(O)c1O"
  GI50: "> 100 µM (inactive)"
- COMPOUND: "O=C(Cc1ccccc1[N+](=O)[O-])C(CO)c1ccccc1[N+](=O)[O-] (stereo not drawn)"
  GI50: "80.4 µM (inactive)"
- COMPOUND: "N#Cc1c(N)nc(Sc2ccccc2N)c(C#N)c1-c1ccc(Cl)cc1"
  GI50: "2.65 µM (inactive)"
- COMPOUND: "CSc1cc(Cl)c(C)cc1S(=O)(=O)NC(=O)NNc1ccc(Cl)cc1"
  GI50: "> 100 µM (inactive)"
- COMPOUND: "COC(=O)c1ccc2c(c1)CC1(C2)Cc2cc3c(c(C(=O)OC)c2C1)CCCC3 (stereo not drawn)"
  GI50: "32.5 µM (inactive)"
- COMPOUND: "O=C1CC[N+]2=Cc3ccccc3O[B-]2(c2ccccc2)O1 (stereo not drawn)"
  GI50: "> 100 µM (inactive)"
- COMPOUND: "COC(=O)C12CCC(CC1=O)C2(C)C (stereo not drawn)"
  GI50: "> 100 µM (inactive)"
- COMPOUND: "C=CCN(N=O)C(=O)N(CCCCC(NC(C)=O)C(=O)NCc1ccccc1)Cc1ccccc1 (stereo not drawn)"
  GI50: "42.9 µM (inactive)"

GI50 for CC(Oc1ccc(OCC2CCCCC2)cc1)C(=O)OCC(=O)c1ccc(-c2ccccc2)cc1 (stereo not drawn) is > 100 µM (inactive)

Sample CC1=CC2(O)OC3(CC2=C(C)C)C(C)CCC13 (stereo not drawn) ; GI50 observed: > 100 µM (inactive)

According to the records, this compound `N#Cc1c(-c2ccccc2)cc(-c2ccc(N)cc2)[nH]c1=O` displays GI50 of > 100 µM (inactive)

# GI50 (compound: COC(=O)CCc1ccc2c(c1)CC1(C2)Cc2ccc3c(c2C1)CCC3 (stereo not drawn) ) is > 100 µM (inactive)

So, COC(=O)c1c(C)cccc1C1CN=NC12Cc1ccc(C)c(C)c1C2=O (stereo not drawn) ? Its GI50 was 36.3 µM (inactive)

Looking up `O=C1c2c(F)c(F)c(F)c(F)c2SC2=NCCN12` , I see its GI50 listed as 18.4 µM (inactive)

// field: GI50; key: O=C1c2ccccc2OP(=O)(OCC(F)(F)F)OC1(C(F)(F)F)C(F)(F)F (stereo not drawn) ; value = > 100 µM (inactive)

Query `CC/C(Cl)=N\OC(=O)Nc1ccc(C#N)cc1` yields GI50 of 16.6 µM (inactive)

Just so you know, measured GI50 for `C/C(=N\NC(N)=S)c1ccccn1.OB(O)c1ccccc1` came out at 5.89 µM (inactive)

For this compound ( N#CC1C2CCC3(CC2CCN1C(=O)c1ccccc1)OCCO3 (stereo not drawn) ), measured GI50 is > 100 µM (inactive)

Data point: `CCCCCc1c(CCCC)c(=O)[nH]c2cc(CNCC(OC)OC)ccc12` ; GI50 = 15.1 µM (inactive)

// recorded GI50 for `C[n+]1c(-c2ccc(/C=N/Nc3ccnc(N/N=C/c4ccc(-c5cn6ccsc6[n+]5C)cc4)n3)cc2)cn2ccsc21` : 27.9 µM (inactive)

Form: compound = O=C1CC(Cl)c2c1csc2Br (stereo not drawn) ; GI50 = 24.1 µM (inactive)

Measured GI50, `Cc1c2cc[n+](CCN3CCCCC3)cc2c(C)c2c1[nH]c1ccc(O)cc12` : 10.6 µM (inactive)

Recorded result, `Cn1c(N)c(/C=N/NC(=O)CC#N)c(=O)n(C)c1=O` , GI50: > 100 µM (inactive)
